target: Adrenergic receptor beta (Rattus norvegicus) (UniProt P18090+P10608+P26255); experiment: Beta agonistic activity as the dose required to increase heart rate by 30 beats/min in anesthetized rats upon intravenous administration; type: functional, organism-based
Sequence (P18090 whole entry, looked up): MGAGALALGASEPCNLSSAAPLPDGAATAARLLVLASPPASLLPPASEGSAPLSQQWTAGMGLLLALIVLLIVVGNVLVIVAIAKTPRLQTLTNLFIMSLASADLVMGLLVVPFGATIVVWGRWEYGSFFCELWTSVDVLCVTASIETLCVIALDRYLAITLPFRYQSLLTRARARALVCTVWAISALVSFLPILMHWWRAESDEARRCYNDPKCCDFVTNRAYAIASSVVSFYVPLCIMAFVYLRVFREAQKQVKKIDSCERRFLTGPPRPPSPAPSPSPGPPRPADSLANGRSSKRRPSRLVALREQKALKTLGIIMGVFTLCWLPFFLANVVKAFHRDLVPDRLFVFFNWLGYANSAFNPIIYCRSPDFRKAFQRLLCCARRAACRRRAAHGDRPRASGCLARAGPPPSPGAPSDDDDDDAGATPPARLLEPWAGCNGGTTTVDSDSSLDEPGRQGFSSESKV
Note to self: class = bucket of ED30, per bottom range: < 0.02 mg/kg; center range: ≥ 0.02 mg/kg and < 0.03 mg/kg; top range: ≥ 0.03 mg/kg

Which bin, given its ED30, does CC(C)NCC(O)COc1ccc(OCCOCCc2ccc(C#N)cc2)cc1 (configuration not stated) occupy?
top range

Also CC(C)NCC(O)COc1ccc(OCCOCCc2ccc(F)cc2)cc1F (configuration not stated) ?
top range

Also CC(C)NCC(O)COc1ccc(CC(N)=O)cc1 (configuration not stated) ?
top range

Also COCCc1ccc(OCC(O)CNC(C)C)cc1 (configuration not stated) ?
top range

Also CC(C)NC[C@H](O)COc1ccc(OCCOCCc2ccc(F)cc2)cc1 (stereo in doubt; 14b) ?
top range

Also CSc1ccc(CCOCCOc2ccc(OCC(O)CNC(C)C)cc2)cc1 (configuration not stated) ?
top range

Also CC(C)NCC(O)COc1ccc(OCCOCCOc2ccc(OCC(O)CNC(C)C)cc2)cc1 (configuration not stated) ?
bottom range

Also CC(C)NCC(O)COc1ccc(CCOCCOc2ccccc2)cc1 (configuration not stated) ?
top range

Also COc1ccc(CCOCCOc2ccc(OCC(O)CNC(C)C)cc2)cc1 (configuration not stated) ?
bottom range

Also CC(C)NCC(O)COc1ccc(OCCOCCc2ccc(Cl)cc2)cc1 (configuration not stated) ?
top range

Also Cc1ccc(CCOCCOc2ccc(OCC(O)CNC(C)C)cc2)cc1 (configuration not stated) ?
center range

Also CC(C)NCC(O)COc1ccc(OCCOCCOc2ccccc2)cc1 (configuration not stated) ?
bottom range

Also Cc1cc(OCCOCCc2ccccc2)ccc1OCC(O)CNC(C)C (configuration not stated) ?
top range

Also CC(C)(C)NCC(O)COc1ccc(OCCOCCc2ccc(F)cc2)cc1 (configuration not stated) ?
center range

Also CC(C)NC[C@H](O)COc1ccc(OCCOCCc2ccc(F)cc2)cc1 (stereo in doubt; 14a) ?
bottom range

Also CC(C)NCC(O)COc1ccc(OCCOCCc2ccc(F)cc2)cc1 (configuration not stated) ?
top range

Also CC(C)(C)NCC(O)COc1ccc(OCCOCCc2ccccc2)cc1 (configuration not stated) ?
center range

Also CC(=O)Nc1ccc(CCOCCOc2ccc(OCC(O)CNC(C)C)cc2)cc1 (configuration not stated) ?
center range

Also CC(C)NCC(O)COc1ccc(OCCOCCc2ccccc2)cc1Cl (configuration not stated) ?
bottom range

Also CC(C)NCC(O)COc1ccc(CCOCCc2ccccc2)cc1 (configuration not stated) ?
top range

Also CC(C)NCC(O)COc1ccc(OCCOCCc2ccc(F)cc2)c(F)c1 (configuration not stated) ?
top range

----------
target: Beta-1 adrenergic receptor (Rattus norvegicus); experiment: Beta-1 adrenoceptor blocking activity as the dose required to inhibit 50% of tachycardia in anesthetized rats; type: functional
Would you kindly list ED50 for each of these compounds?

Tell me the measured ED50 of CC(C)NCC(O)COc1ccc(OCCOCCc2ccc(F)cc2)cc1F (stereo unspecified) , please.
0.001 mg/kg

Also CC(C)NCC(O)COc1ccc(OCCOCCOc2ccccc2)cc1 (stereo unspecified) ?
0.041 mg/kg

Also CC(C)NCC(O)COc1ccc(OCCOCCc2ccc(F)cc2)cc1 (stereo unspecified) ?
0.003 mg/kg

Also CC(C)NCC(O)COc1ccc(CC(N)=O)cc1 (stereo unspecified) ?
0.091 mg/kg

Also CC(C)NCC(O)COc1ccc(OCCOCCc2ccc(C#N)cc2)cc1 (stereo unspecified) ?
0.654 mg/kg

Also CC(C)NCC(O)COc1ccc(OCCOCCc2ccc(F)cc2)c(F)c1 (stereo unspecified) ?
0.001 mg/kg

Also CSc1ccc(CCOCCOc2ccc(OCC(O)CNC(C)C)cc2)cc1 (stereo unspecified) ?
0.174 mg/kg

Also CC(C)(C)NCC(O)COc1ccc(OCCOCCc2ccccc2)cc1 (stereo unspecified) ?
0.018 mg/kg

Also CC(C)NCC(O)COc1ccc(OCCOCCc2ccccc2)cc1Cl (stereo unspecified) ?
0.025 mg/kg

Also CC(=O)Nc1ccc(CCOCCOc2ccc(OCC(O)CNC(C)C)cc2)cc1 (stereo unspecified) ?
> 2 mg/kg

Also CC(C)NC[C@H](O)COc1ccc(OCCOCCc2ccc(F)cc2)cc1 (stereo in doubt; 14b) ?
> 2 mg/kg
